assay target: SIRT1 (Homo sapiens, UniProt Q96EB6)
Sequence (Q96EB6 1-747): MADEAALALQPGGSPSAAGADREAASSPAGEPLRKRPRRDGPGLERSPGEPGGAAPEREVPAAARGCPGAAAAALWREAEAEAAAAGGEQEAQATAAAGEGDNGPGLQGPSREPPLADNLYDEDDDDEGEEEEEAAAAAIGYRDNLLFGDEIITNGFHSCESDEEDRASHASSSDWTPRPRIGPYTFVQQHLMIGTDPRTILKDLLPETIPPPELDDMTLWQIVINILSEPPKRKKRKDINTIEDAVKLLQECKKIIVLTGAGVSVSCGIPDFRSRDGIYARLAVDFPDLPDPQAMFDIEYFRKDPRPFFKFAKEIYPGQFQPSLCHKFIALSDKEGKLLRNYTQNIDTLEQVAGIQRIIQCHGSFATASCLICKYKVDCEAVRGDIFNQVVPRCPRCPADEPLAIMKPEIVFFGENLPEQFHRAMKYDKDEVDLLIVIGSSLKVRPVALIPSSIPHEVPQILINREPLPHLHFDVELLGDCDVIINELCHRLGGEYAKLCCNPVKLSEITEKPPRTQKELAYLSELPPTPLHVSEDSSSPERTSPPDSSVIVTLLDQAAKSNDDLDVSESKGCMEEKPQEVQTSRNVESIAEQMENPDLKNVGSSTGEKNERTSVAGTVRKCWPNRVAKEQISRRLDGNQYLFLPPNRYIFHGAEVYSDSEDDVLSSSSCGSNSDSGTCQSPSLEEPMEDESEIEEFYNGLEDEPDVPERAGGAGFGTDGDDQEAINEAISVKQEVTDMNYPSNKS
measurement protocol: Trp mass spectrometry assay of SIRT1 activation (Ac-R-H-K-K(Ac)-W-NH2 peptide)
Type: biochemical
details: Trp peptide 0.5 μM, 120 μM βNAD+, 10 nM SIRT1, 25 min at 25° C.; relative to control (100%)
measured metric: TRP MAX RESP (percent maximum fold activation)

molecule	result
C[C@@H](NC(=O)c1ccc2c(n1)N(C(=O)Nc1ncc(F)cc1F)[C@H]1CCN2C1)C(F)(F)F [Example 310]	B (Fold Activation<150%)
COc1cc(NC(=O)N2c3nc(C(=O)NC4CC4(F)F)ccc3N3CC[C@H]2C3)ncn1 (single isomer, unassigned) [Example 303]	B (Fold Activation<150%)
O=C(NC1CC1(F)F)c1ccc2c(n1)N(C(=O)Nc1cccnn1)[C@H]1CCN2C1 (single isomer, unassigned) [Example 271]	A (Fold activation≥150%)
O=C(NC1CC1(F)F)c1ccc2c(n1)N(C(=O)Nc1cnccn1)[C@H]1CCN2C1 (single isomer, unassigned) [Example 273]	A (Fold activation≥150%)

* * *

Recorded Emax for the following compounds
assay target: SIRT1 (Homo sapiens, UniProt Q96EB6)
measurement protocol: Trp mass spectrometry assay of SIRT1 activation (Ac-R-H-K-K(Ac)-W-NH2 peptide)
Assay type: biochemical
details: 25 min, Trp peptide 0.5 μM, 120 μM βNAD+, 10 nM SIRT1, 25 min at 25° C.; relative to control (100%); read-out: TRP MAX RESP (percent maximum fold activation)

Solved cases below.
compound	Emax
Cn1cccc(NC(=O)N2c3nc(C(=O)NC4CC4)ccc3N3CC[C@H]2C3)c1=O [Example 216]	> 150%
C[C@@H](NC(=O)c1ccc2c(n1)N(C(=O)Nc1cn(C)ccc1=O)[C@H]1CCN2C1)C(F)(F)F [Example 188]	> 150%
Cc1ncc(-c2cc(NC(=O)N3c4nc(C(=O)N[C@H](C)C(F)(F)F)ccc4N4CC[C@H]3C4)c(=O)n(C)c2)o1 [Example 319]	< 150%
Cc1ncc(-c2ccnc(NC(=O)N3c4nc(C(=O)NCC(F)(F)F)cc(C)c4N4CC[C@H]3C4)c2)o1 [Example 293]	< 150%
NC(CNC(=O)c1ccc2c(n1)N(C(=O)Nc1cc(OC[C@H](O)CO)ccn1)[C@H]1CCN2C1)C(F)(F)F (single isomer, unassigned) [Example 196]	> 150%

Problem: Provide Emax value for the following compound: C[C@@H](NC(=O)c1ccc2c(n1)N(C(=O)Nc1cc(OC[C@@H](O)CO)ncn1)[C@H]1CCN2C1)C(F)(F)F [Example 162]
Solution: > 150%

Problem: Indicate the recorded Emax value for this compound: CC(C)(CCO)NC(=O)c1ccc2c(n1)N(C(=O)Nc1ccccn1)[C@H]1CCN2C1 [Example 209]
Solution: > 150%

Problem: Name the recorded Emax of the item O=C(N[C@H](C1CC1)C(F)(F)F)c1ccc2c(n1)N(C(=O)Nc1ccccn1)[C@H]1CCN2C1 [Example 46] in your answer.
Solution: > 150%

Problem: Identify measured Emax associated with C[C@@H](NC(=O)c1ccc2c(n1)N(C(=O)Nc1cc(-c3cnn[nH]3)ccn1)[C@H]1CCN2C1)C(F)(F)F [Example 296]
Solution: < 150%

Problem: Tell me Emax reported for C[C@@H](NC(=O)c1ccc2c(n1)N(C(=O)Nc1cc(OC[C@H](O)CO)ncn1)[C@H]1CCN2C1)C(F)(F)F [Example 189]
Solution: > 150%

* * *

assay target: SIRT1 (Homo sapiens, UniProt Q96EB6)
Sequence (Q96EB6 1-747): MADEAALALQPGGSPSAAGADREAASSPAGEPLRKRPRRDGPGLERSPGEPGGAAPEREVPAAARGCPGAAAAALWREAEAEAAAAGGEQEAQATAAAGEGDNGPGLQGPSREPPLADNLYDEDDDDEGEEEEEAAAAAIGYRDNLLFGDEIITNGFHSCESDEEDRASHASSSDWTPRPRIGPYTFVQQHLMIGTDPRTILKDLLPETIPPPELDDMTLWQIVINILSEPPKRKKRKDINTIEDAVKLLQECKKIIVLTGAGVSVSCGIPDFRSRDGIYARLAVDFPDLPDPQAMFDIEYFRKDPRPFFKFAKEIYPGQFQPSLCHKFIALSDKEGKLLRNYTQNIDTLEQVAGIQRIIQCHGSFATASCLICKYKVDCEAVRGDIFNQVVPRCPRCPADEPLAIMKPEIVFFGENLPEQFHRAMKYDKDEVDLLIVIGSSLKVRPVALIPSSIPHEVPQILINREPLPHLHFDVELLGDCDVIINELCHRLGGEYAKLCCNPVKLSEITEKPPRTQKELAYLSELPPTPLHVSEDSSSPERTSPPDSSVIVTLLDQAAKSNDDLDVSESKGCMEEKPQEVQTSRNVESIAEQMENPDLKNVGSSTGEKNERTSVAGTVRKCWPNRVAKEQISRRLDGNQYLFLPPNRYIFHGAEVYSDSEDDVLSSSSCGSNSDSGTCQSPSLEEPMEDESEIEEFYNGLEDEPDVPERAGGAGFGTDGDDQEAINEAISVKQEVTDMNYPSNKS
measurement protocol: Trp mass spectrometry assay of SIRT1 activation (Ac-R-H-K-K(Ac)-W-NH2 peptide)
Type: biochemical
details: 25 min, Trp peptide 0.5 μM, 120 μM βNAD+, 10 nM SIRT1, 25 min at 25° C.; relative to control (100%); read-out: TRP MAX RESP (percent maximum fold activation)
The entries below are paired with their reported Emax.

Please review the following examples before continuing.
compound	measured metric	result
CC(CO)NC(=O)c1ccc2c(n1)N(C(=O)Nc1ccccn1)[C@H]1CCN2C1 (stereo partly shown)	Emax	> 150%
C[C@@H](O)CNC(=O)c1ccc2c(n1)N(C(=O)Nc1ccccn1)[C@H]1CCN2C1	Emax	> 150%

Problem: Retrieve Emax measured for `CCNC(=O)c1ccnc(NC(=O)N2c3nc(C(=O)N[C@H](C)C(F)(F)F)ccc3N3CC[C@H]2C3)c1` and print it.
Solution: < 150%

Problem: Annotate the compound `C[C@@H](NC(=O)c1ccc2c(n1)N(C(=O)Nc1ccnn(C)c1=O)[C@H]1CCN2C1)C(F)(F)F` with its measured Emax.
Solution: > 150%

* * *

This listing pairs compounds with measured Emax.
assay target: SIRT1 (Homo sapiens)
measurement protocol: Trp mass spectrometry assay of SIRT1 activation (Ac-R-H-K-K(Ac)-W-NH2 peptide)
Type: biochemical
details: 25 min, Trp peptide 0.5 μM, 120 μM βNAD+, 10 nM SIRT1, 25 min at 25° C.; relative to control (100%); read-out: TRP MAX RESP (percent maximum fold activation)

Solved cases (2 shown):
compound	result
C[C@@H](NC(=O)c1ccc2c(n1)N(C(=O)Nc1cc(C(N)=O)ccn1)[C@H]1CCN2C1)C(F)(F)F [Example 137]	> 150%
COC(=O)CNC(=O)c1ccc2c(n1)N(C(=O)Nc1ccccn1)[C@H]1CCN2C1 [Example 12]	> 150%

Problem: Answer with the recorded Emax of COc1ccnc(NC(=O)N2c3nc(C(=O)NCC(F)(F)F)ccc3N3CC[C@H]2C3)c1 [Example 136] only.
Solution: > 150%

Problem: Supply reported Emax belonging to this compound: C[C@@H](NC(=O)c1ccc2c(n1)N(C(=O)Nc1cc(NS(C)(=O)=O)ccn1)[C@H]1CCN2C1)C(F)(F)F [Example 324]
Solution: < 150%

Problem: Could you please provide reported Emax for O=C(NCc1cccc(F)c1)c1ccc2c(n1)N(C(=O)Nc1cc(OC[C@H](O)CO)ccn1)[C@H]1CCN2C1 [Example 187] ? Thanks!
Solution: > 150%

Problem: Give the measured Emax for C[C@@H](NC(=O)c1ccc2c(n1)N(C(=O)Nc1cc(-c3cnc(C4CC4)s3)ccn1)[C@H]1CCN2C1)C(F)(F)F [Example 325]
Solution: < 150%

Problem: Please look at this compound and report its Emax: O=C(NCC(F)(F)F)c1ccc2c(n1)N(C(=O)Nc1cc(OC[C@H](O)CO)ccn1)[C@H]1CCN2C1 [Example 89]
Solution: > 150%
